Biological target: PKB (Homo sapiens, UniProt P31749)
Construct: His; HA; made in house
Sequence (P31749 whole entry, species assumed): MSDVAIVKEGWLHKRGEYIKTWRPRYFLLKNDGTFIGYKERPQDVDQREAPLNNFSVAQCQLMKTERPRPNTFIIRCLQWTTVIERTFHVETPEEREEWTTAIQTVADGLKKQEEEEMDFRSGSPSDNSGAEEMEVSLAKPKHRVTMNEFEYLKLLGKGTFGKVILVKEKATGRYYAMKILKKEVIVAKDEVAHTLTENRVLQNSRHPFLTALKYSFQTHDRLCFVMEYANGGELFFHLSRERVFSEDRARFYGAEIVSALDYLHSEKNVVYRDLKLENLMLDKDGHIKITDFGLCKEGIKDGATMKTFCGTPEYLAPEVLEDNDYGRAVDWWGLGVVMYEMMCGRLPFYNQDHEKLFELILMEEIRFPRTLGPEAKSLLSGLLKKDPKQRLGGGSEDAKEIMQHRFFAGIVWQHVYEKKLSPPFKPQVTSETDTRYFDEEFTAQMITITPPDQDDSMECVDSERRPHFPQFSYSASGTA
Assay: PKB in vitro kinase activity assay (soluble His-HA-PKB / SPA bead screening)
Assay type: biochemical
Settings: 1 μM compound concentration, Assay 1
Where no end group is shown, it is not given here. Side-chain parts run from the residue outwards. [ ]: non-standard residue; d: D form. The star is where a group is joined. X1 = 5‑aminoethylsulfonamide isoquinoline, O=S(=O)(NCCN*)c1cccc2cnccc12; hLeu = CC(C)CC[C@H](N)C(=O)O; Orn = NCCC[C@H](N)C(=O)O; Dab = NCC[C@H](N)C(=O)O; Abu = CC[C@H](N)C(=O)O; Dap = NC[C@H](N)C(=O)O; βAla = NCCC(=O)O
Label -1 if PKB-kinase (spa) Assay 1, % inhibition of kinase activity falls below 60%; label 1 in every other case.

Check this substance for PKB-kinase (spa) Assay 1, % inhibition of kinase activity at or above 60%: 60020-85: Arg-Pro-Arg-Abu-Glu(bAla-5-aminoethylsulfonamide isoquinoline)-Ala-Phe (RPR[Abu]E([βAla-X1])AF)
-1

Check this substance for PKB-kinase (spa) Assay 1, % inhibition of kinase activity at or above 60%: 60020-3: Arg-Pro-Arg-Dap-Glu(5-aminoethylsulfonamide isoquinoline)-Orn-Phe (RPR[Dap]E(X1)[Orn]F)
-1

Check this substance for PKB-kinase (spa) Assay 1, % inhibition of kinase activity at or above 60%: 60020-66: Arg-Pro-Arg-Dap-Glu(bAla-5-aminoethylsulfonamide isoquinoline)-Dab-Hol (RPR[Dap]E([βAla-X1])[Dab][hLeu])
-1

Check this substance for PKB-kinase (spa) Assay 1, % inhibition of kinase activity at or above 60%: 60020-81: Arg-Pro-Arg-Abu-Glu(bAla-5-aminoethylsulfonamide isoquinoline)-Dab-Phe (RPR[Abu]E([βAla-X1])[Dab]F)
-1

Check this substance for PKB-kinase (spa) Assay 1, % inhibition of kinase activity at or above 60%: 60020-9: Arg-Pro-Arg-Orn-Glu(5-aminoethylsulfonamide isoquinoline)-Dab-Phe (RPR[Orn]E(X1)[Dab]F)
1
